Below is a list of entries, each paired with its recorded IC50 value.
biological target: BRD4 (Homo sapiens); assay: Time Resolved Fluorescence Resonance Energy Transfer (TR-FRET) binding assay, BRD4; details: one of the FRET assays described; read-out: FRET BRD4 IC50

Study these solved cases before continuing.
Compound | IC50
Cc1n[nH]cc1-c1cnc2c3ccc(S(C)(=O)=O)cc3n([C@H](c3ccccc3)C3CCOCC3)c2c1 [Example 455] | < 25 nM
[2H]C([2H])([2H])c1nnn(C)c1-c1cnc2c3cc(F)c(C(C)(C)O)cc3n([C@H](c3ccccc3)C3CCOCC3)c2c1 [Example 279] | < 5 nM
COC(=O)NC(C)(C)c1ccc2c3ncc(-c4c(C)nnn4C)cc3n([C@H](c3ccccc3)C3CCOCC3)c2c1F [Example 464] | < 5 nM
[2H]C([2H])([2H])c1nnn(C)c1-c1cnc2c3ccc(C(C)(C)O)cc3n(C(c3cc(C)on3)C3CCOCC3)c2c1 (stereo not shown) [Example 309] | < 25 nM
Cc1ccc([C@H](C2CCOCC2)n2c3cc(CS(C)(=O)=O)ccc3c3ncc(-c4c(C)nnn4C)cc32)nc1 [Example 338] | < 5 nM
Cn1nnc(N)c1-c1cnc2c3ccc(C(C)(C)O)cc3n([C@H](c3ccccc3)C3CCOCC3)c2c1 [Example 389] | < 5 nM
[2H]C([2H])([2H])c1nnn(C)c1-c1cnc2c3c(F)cc(S(C)(=O)=O)cc3n(C(c3ccccc3)C3CCC(F)(F)CC3)c2c1 (single isomer, unassigned) [Example 200] | < 5 nM
[2H]C([2H])([2H])c1nnn(C)c1-c1cnc2c3c(OCC(F)F)ccc(S(C)(=O)=O)c3n(C(c3ncccc3F)C3CCOCC3)c2c1 (stereo not shown) [Example 245] | < 5 nM

QUERY: Identify IC50 associated with the compound Cc1nnn(C)c1-c1cnc2c3ccc(C(C)(C)NC(=O)CN(C)C)cc3n(C(c3ccccc3)C3CCOCC3)c2c1 (single isomer, unassigned) [Example 168]
RESULT: < 5 nM

QUERY: Identify IC50 associated with the compound [2H]C([2H])([2H])c1nnn(C)c1-c1cnc2c3cc(F)c(C(C)(C)O)c(F)c3n([C@H](c3ccccc3)C3CCOCC3)c2c1 [Example 452]
RESULT: < 5 nM

QUERY: Identify IC50 associated with the compound [2H]C([2H])([2H])c1nnn(C)c1-c1cnc2c3ccc(C(C)(C)O)c(F)c3n(C(c3ccc(F)cc3F)C3CCOCC3)c2c1 (stereo not shown) [Example 283]
RESULT: < 5 nM

QUERY: Identify IC50 associated with the compound Cc1noc(C)c1-c1cnc2c3ccc(C(C)(C)O)c(F)c3n(C(c3ccc(F)cc3)C3CCOCC3)c2c1 (single isomer, unassigned) [Example 81]
RESULT: < 5 nM

QUERY: Identify IC50 associated with the compound [2H]C([2H])([2H])c1nnn(C)c1-c1cnc2c3c(OC)cc(S(C)(=O)=O)cc3n([C@H](c3ccccc3F)C3CCOCC3)c2c1 [Example 198]
RESULT: < 5 nM
